Molecular target: human OPRM1 (μ, MOR) (Homo sapiens, UniProt P35372)
Construct: host or cells: CHO-K1
Sequence (P35372 whole entry): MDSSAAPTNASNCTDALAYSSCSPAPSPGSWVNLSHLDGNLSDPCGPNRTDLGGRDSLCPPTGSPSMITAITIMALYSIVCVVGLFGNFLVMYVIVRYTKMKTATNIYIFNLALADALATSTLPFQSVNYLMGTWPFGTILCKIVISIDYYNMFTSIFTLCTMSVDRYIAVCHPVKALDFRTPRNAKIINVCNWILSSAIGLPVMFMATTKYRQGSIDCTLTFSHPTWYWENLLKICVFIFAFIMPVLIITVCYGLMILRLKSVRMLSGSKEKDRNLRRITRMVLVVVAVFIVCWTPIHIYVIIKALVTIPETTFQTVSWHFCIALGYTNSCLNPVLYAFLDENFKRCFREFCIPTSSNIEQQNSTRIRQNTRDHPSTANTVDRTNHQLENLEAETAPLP
Assay: cell-based
Details: PathHunter human OPRM1 Arrestin CHO-K1 cell line; read-out: β-Arrestin EC50
Structures can show the parent of a compound that is named as a salt.
Reported pEC50 by item:
# pEC50 is unitless: minus log10 of the molar concentration; print number only

Please review the following examples before continuing.
{"COMPOUND": "CN(C)C(CNC(=O)N(C)[C@H]1CCCc2ccccc21)c1ccsc1 (stereo partly drawn) [Compound 39]", "pEC50": 6.19}
{"COMPOUND": "COc1ccc(C(CNC(=O)N2Cc3ccccc3C2)N(C)C)cc1 (stereo not drawn) [Compound 15a, hydrochloride]", "pEC50": 5.86}
{"COMPOUND": "CNC(CNC(=O)N1Cc2cccc(F)c2C1)c1ccsc1 (stereo not drawn) [Compound 80]", "pEC50": 5.86}
{"COMPOUND": "CN(C)[C@H](CCNC(=O)N1Cc2ccc(F)cc2C1)c1ccsc1 [Compound 30-R]", "pEC50": 5.24}

Provide value of pEC50 for this record tested with human OPRM1 (μ, MOR) (Homo sapiens, UniProt P35372): CN(C)C(CNC(=O)NC1CCCc2c(O)cccc21)c1ccsc1 (stereo not drawn) [Compound 59]
6.80

These entries and their values trace back to patent US20220315567A1.
